Recorded IC50 values for a group of molecules are listed next.
Target chain: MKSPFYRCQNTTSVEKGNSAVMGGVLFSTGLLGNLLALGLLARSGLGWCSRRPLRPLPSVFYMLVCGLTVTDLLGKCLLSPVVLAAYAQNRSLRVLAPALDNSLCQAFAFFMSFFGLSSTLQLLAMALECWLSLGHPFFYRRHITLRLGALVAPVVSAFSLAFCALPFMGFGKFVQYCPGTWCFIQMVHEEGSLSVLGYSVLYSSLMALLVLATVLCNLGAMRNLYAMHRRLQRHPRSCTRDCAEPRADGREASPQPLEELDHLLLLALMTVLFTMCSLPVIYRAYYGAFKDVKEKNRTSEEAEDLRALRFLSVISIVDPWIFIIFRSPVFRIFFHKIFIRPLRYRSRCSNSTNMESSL

Below, each entry is followed by its recorded IC50 result.
O=C(O)Cc1cccc(Oc2ccc(-c3ccccc3)cc2CN2CCOC2=O)c1	> 1 µM
COc1ccc(CC(=O)O)cc1Oc1ccc(-c2ccc(S(C)(=O)=O)cc2)cc1CN1CCOC1=O	> 1 µM
C[C@@H]1[C@H](c2cc(F)cc(F)c2)OC(=O)N1Cc1cc(Br)ccc1Oc1cccc(CC(=O)O)c1	0.3 to 1 µM
C[C@@H]1[C@H](c2ccccc2)OC(=O)N1Cc1cc(Br)ccc1Oc1cc(CC(=O)O)ccc1O	> 1 µM
Cn1cc(-c2ccc(Oc3cccc(CC(=O)O)c3)c(CN3CCOC3=O)c2)cn1	> 1 µM
COc1ccc(CC(=O)O)cc1Oc1ccc(C(F)(F)F)cc1CN1CCOC1=O	> 1 µM

Now, please, on to the next molecule.
So what's the measured IC50 for this one? Cc1c[nH]c(-c2ccc(Oc3cccc(CC(=O)O)c3)c(CN3C(=O)O[C@H](c4ccccc4)[C@@H]3C)c2)n1
> 1 µM

* * *

target: recombinant human CRTH2 receptor (Homo sapiens); construct: expressed in transfected cells; test: GTPγS binding assay; format: biochemical; details: +HSA; read-out: hDP2 GTPγS μM (+HSA)
Sequence (Q9Y5Y4 whole entry): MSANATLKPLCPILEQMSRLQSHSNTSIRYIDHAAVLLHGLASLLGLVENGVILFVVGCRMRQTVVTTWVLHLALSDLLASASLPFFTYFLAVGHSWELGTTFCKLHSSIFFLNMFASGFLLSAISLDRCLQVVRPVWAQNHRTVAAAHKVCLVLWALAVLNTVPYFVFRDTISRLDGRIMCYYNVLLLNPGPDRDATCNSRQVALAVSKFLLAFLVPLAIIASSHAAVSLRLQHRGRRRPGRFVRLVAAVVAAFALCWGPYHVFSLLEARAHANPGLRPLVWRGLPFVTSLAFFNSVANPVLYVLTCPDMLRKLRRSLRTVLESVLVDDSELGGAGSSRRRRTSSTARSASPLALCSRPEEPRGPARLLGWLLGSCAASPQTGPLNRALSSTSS
assay.endpoint: IC50

Below, each entry is followed by its recorded IC50 result.
CCOc1ccc(CC(=O)O)cc1Oc1ccc(Br)cc1CN1C(=O)O[C@@H](c2ccccc2)[C@H]1C [Compound 1-88]	< 0.3 µM
O=C(O)Cc1cccc(Oc2ccc(Br)cc2CN2C[C@@H](c3ccccc3)OC2=O)c1 [Compound 1-47]	< 0.3 µM
C[C@H]1[C@@H](c2ccccc2)OC(=O)N1Cc1cc(Br)ccc1Oc1cc(Cl)cc(CC(=O)O)c1 [Compound 1-27]	< 0.3 µM
CC(C(=O)O)c1cccc(Oc2ccc(C(F)(F)F)cc2CN2CCOC2=O)c1 (stereo not drawn) [Compound 1-10]	> 1 µM
C[C@@H]1[C@H](c2ccccc2)OC(=O)N1Cc1cc(Br)ccc1Oc1cc(CC(=O)O)cc(C(F)(F)F)c1 [Compound 1-57]	< 0.3 µM
C[C@H]1[C@@H](c2ccccc2)OC(=O)N1Cc1cc(Br)ccc1Oc1ccc(Cl)c(CC(=O)O)c1 [Compound 1-24]	> 1 µM
C[C@@H]1[C@H](c2ccccc2)OC(=O)N1Cc1cc(Br)ccc1Oc1ccc(Cl)c(CC(=O)O)c1 [Compound 1-53]	> 1 µM
C[C@@H]1[C@H](c2ccccc2)OC(=O)N1Cc1cc(Br)ccc1Oc1cc(CC(=O)O)ccc1Cl [Compound 1-58]	0.3 to 1 µM
O=C(O)Cc1cccc(Oc2ccc(Br)cc2CN2C[C@H](c3ccccc3)OC2=O)c1 [Compound 1-48]	> 1 µM
COc1ccc(CC(=O)O)cc1Oc1ccc(-c2cnn(C)c2)cc1CN1C(=O)O[C@H](c2ccccc2)[C@@H]1C [Compound 1-43]	0.3 to 1 µM

Query for recombinant human CRTH2 receptor (Homo sapiens): what IC50 does the record show for COc1ccc(CC(=O)O)cc1Oc1ccc(Br)cc1CN1CCOC1=O [Compound 1-14] ?
< 0.3 µM

Query for recombinant human CRTH2 receptor (Homo sapiens): what IC50 does the record show for COc1ccc(CC(=O)O)cc1Oc1ccc(-c2cccnc2)cc1CN1C(=O)O[C@H](c2ccccc2)[C@@H]1C [Compound 1-40] ?
< 0.3 µM

Query for recombinant human CRTH2 receptor (Homo sapiens): what IC50 does the record show for COc1ccc(CC(=O)O)cc1Oc1ccc(C(F)(F)F)cc1CN1C(=O)O[C@H](c2ccccc2)[C@@H]1C [Compound 1-32] ?
< 0.3 µM

Query for recombinant human CRTH2 receptor (Homo sapiens): what IC50 does the record show for O=C(O)Cc1cccc(Oc2ccc(C(F)(F)F)cc2CN2C(=O)O[C@@H]3Cc4ccccc4[C@@H]32)c1 [Compound 2-3] ?
0.3 to 1 µM

Query for recombinant human CRTH2 receptor (Homo sapiens): what IC50 does the record show for COc1ccc(CC(=O)O)cc1Oc1ccc(-c2ccccc2OC)cc1CN1C(=O)O[C@H](c2ccccc2)[C@@H]1C [Compound 1-37] ?
< 0.3 µM

* * *

target: recombinant human CRTH2 receptor (Homo sapiens); construct: expressed in transfected cells; assay: GTPγS binding assay; type: biochemical; details: +HSA; read-out: hDP2 GTPγS μM (+HSA)
assay.endpoint: IC50

Below, each entry is followed by its recorded IC50 result.
C[C@@H]1[C@H](c2ccccc2)OC(=O)N1Cc1cc(C(F)(F)F)ccc1Oc1cc(CC(=O)O)ccc1-c1cnn(C)c1	< 0.3 µM
O=C(O)Cc1cccc(Oc2ccc(-c3cccnc3)cc2CN2CCOC2=O)c1	> 1 µM
O=C(O)CCn1c2c(c3ccccc31)C[C@H](NS(=O)(=O)c1ccc(F)cc1)CC2 [Ramatroban, reference compound]	0.3 to 1 µM
C[C@@H]1[C@H](c2ccccc2)OC(=O)N1Cc1cc(C(F)(F)F)ccc1Oc1cc(CC(=O)O)ccc1O	< 0.3 µM
C[C@H]1[C@@H](c2ccccc2)OC(=O)N1Cc1cc(C(F)(F)F)ccc1Oc1cc(CC(=O)O)ccc1OCc1ccccc1	< 0.3 µM
O=C(O)Cc1cc(Cl)cc(Oc2ccc(Br)cc2CN2CCOC2=O)c1	< 0.3 µM

So what's the measured IC50 for this one? O=C(O)Cc1cccc(Oc2ccc(Br)cc2CN2CCOC2=O)c1
0.3 to 1 µM

* * *

target: human DP2 receptor (Homo sapiens, UniProt Q9Y5Y4); experiment: DP2/CRTH2 radioligand binding assay using [3H]PGD2; details: hDP2 (CRTH2) binding assay
pIC50: −log10 of the molar value.
Recorded pIC50 values for a group of compounds are listed next.

C[C@@H]1[C@H](c2cc(F)cc(F)c2)OC(=O)N1Cc1cc(Br)ccc1Oc1cccc(CC(=O)O)c1 [Compound 1-51]	> 6.52
COc1ccc(CC(=O)O)cc1Oc1ccc(-c2cccc(S(C)(=O)=O)c2)cc1CN1CCOC1=O [Compound 1-93]	> 6.52
C[C@@H]1[C@H](c2ccccc2)OC(=O)N1Cc1cc(Br)ccc1Oc1ccc(C(F)(F)F)c(CC(=O)O)c1 [Compound 1-54]	6.00 to 6.52
O=C(O)Cc1cccc(Oc2ccc(C(F)(F)F)cc2CN2CCOC2=O)c1 [Compound 1-5]	> 6.52
COc1ccc(C(C)C(=O)O)cc1Oc1ccc(C(F)(F)F)cc1CN1C(=O)O[C@H](c2ccccc2)[C@@H]1C (stereo partly shown) [Compound 1-44]	> 6.52
C[C@H]1[C@@H](c2ccc(Cl)cc2)OC(=O)N1Cc1cc(Br)ccc1Oc1cccc(CC(=O)O)c1 [Compound 1-16]	> 6.52

Now, please, on to the next compound.
So what's the measured pIC50 for this one? C[C@H]1[C@@H](c2ccccc2)OC(=O)N1Cc1cc(C(F)(F)F)ccc1Oc1cc(CC(=O)O)ccc1OCc1ccccc1 [Compound 1-33]
> 6.52

* * *

Target chain: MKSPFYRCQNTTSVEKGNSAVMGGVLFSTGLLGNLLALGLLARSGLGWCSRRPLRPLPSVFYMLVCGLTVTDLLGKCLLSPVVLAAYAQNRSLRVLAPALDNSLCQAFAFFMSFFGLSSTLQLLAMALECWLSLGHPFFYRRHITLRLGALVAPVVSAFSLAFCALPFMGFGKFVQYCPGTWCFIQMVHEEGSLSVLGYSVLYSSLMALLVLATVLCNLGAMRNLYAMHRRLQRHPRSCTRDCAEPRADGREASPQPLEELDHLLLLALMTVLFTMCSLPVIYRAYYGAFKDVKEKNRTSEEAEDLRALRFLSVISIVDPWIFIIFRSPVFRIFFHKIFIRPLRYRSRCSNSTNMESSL
pIC50: −log10 of the molar value.
assay.endpoint: pIC50

Below, each entry is followed by its recorded pIC50 result.
C[C@H]1[C@@H](c2ccc(Cl)cc2)OC(=O)N1Cc1cc(Br)ccc1Oc1cccc(CC(=O)O)c1 [Compound 1-16]	> 6.52
C[C@H]1[C@@H](c2cc(C(F)(F)F)cc(C(F)(F)F)c2)OC(=O)N1Cc1cc(Br)ccc1Oc1cccc(CC(=O)O)c1 [Compound 1-18]	> 6.52
C[C@H]1[C@@H](c2ccccc2)OC(=O)N1Cc1cc(-c2nccs2)ccc1Oc1cccc(CC(=O)O)c1 [Compound 1-74]	> 6.52
COc1ccc(CC(=O)O)cc1Oc1ccc(NC(=O)c2ccc(Cl)cc2)cc1CN1CCOC1=O [Compound 1-91]	< 6.00
O=C(O)Cc1cccc(Oc2ccc(Br)cc2CN2C(=O)OC[C@@H]2c2ccccc2)c1 [Compound 1-45]	< 6.00
C[C@@H]1[C@H](c2ccccc2)OC(=O)N1Cc1cc(Br)ccc1Oc1cc(F)cc(CC(=O)O)c1 [Compound 1-55]	< 6.00

Now, please, on to the next compound.
So what's the measured pIC50 for this one? Cc1nc(-c2ccc(Oc3cccc(CC(=O)O)c3)c(CN3C(=O)O[C@H](c4ccccc4)[C@@H]3C)c2)cn1C [Compound 1-70]
< 6.00
